measured-target: Nonstructural protein 5A (Hepatitis C virus)
test-summary: Transient Replicon Assay: In a transient set-up, a Huh-7 lunet hepatoma cell line was transiently transfected with an autonomously replicating RNA encoding a bi-cistronic expression construct. This construct comprises a firefly luciferase reporter gene preceding the NS3-NS5B subgenomic region of HCV (genotype 1a H77 or 1b Con1). Translation of the HCV subgenomic region is mediated by an internal ribosome entry site of encephalomyocarditis virus. The construct is furthermore flanked by 5' and 3' untranslated regions of HCV (genotype 1a H77 or 1b Con 1, respectively), which allow for replication of the RNA. In addition to the wild-type constructs, site-directed mutations were introduced into the transient HCV genotype 1b replicon in the gene encoding for the non-structural protein 5A (NS5A). More precisely, amino acid residues 28, 30, 31 and 93 in NS5A were independently altered. Cells were plated in 384 well plates in the presence of test and control compounds, which were added in various concentrations. Following an incubation of two days, replication of the HCV subgenomic replicon RNA was measured by assaying luciferase activity (using standard luciferase assay substrates and reagents and a Perkin Elmer ViewLux™ ultraHTS microplate imager). HCV subgenomic replicon containing cells in the control cultures have high luciferase expression in the absence of any inhibitor. The inhibitory activity of the compound was monitored, enabling a dose-response curve for each test compound.
observed-property: EC50

Form field: reported EC50 of COC(=O)N[C@H](C(=O)N1CCC[C@H]1c1ncc(-c2ccc3cc(-c4ccc5nc([C@@H]6CCCN6C(=O)[C@@H](NC(=O)OC)[C@@H](C)OC)[nH]c5c4)ccc3c2)[nH]1)C(C)C
< 0.017 nM

Okay, now this molecule:
Form field: reported EC50 of CC[C@H](C)[C@H](NC(=O)OC)C(=O)N1CCC[C@H]1c1nc2ccc(-c3ccc4cc(-c5cnc([C@@H]6CCCN6C(=O)[C@@H](NC(=O)OC)C(C)C)[nH]5)ccc4c3)cc2[nH]1
< 0.013 nM

====

test-summary: Stable Replicon Assay: The assay utilized the stably transfected cell line Huh-7 luc/neo (hereafter referred to as Huh-Luc). This cell line harbors an RNA encoding a bicistronic expression construct comprising the wild type NS3-NS5B regions of HCV type 1b translated from an Internal Ribosome Entry Site (IRES) from encephalomyocarditis virus (EMCV), preceded by a reporter portion (FfL-luciferase), and a selectable marker portion (neoR, neomycine phosphotransferase). The construct is flanked by 5' and 3' NTRs (non-translated regions) from HCV type 1b. Continued culture of the replicon cells in the presence of G418 (neoR) is dependent on the replication of the HCV RNA. The stably transfected replicon cells that replicate HCV RNA autonomously and to high levels, encoding inter alia luciferase, were used for screening the antiviral compounds. The replicon cells were plated in 384 well plates in the presence of the test and control compounds which were added in various concentrations. Following an incubation of three days, HCV replication was measured by assaying luciferase activity (using standard luciferase assay substrates and reagents and a Perkin Elmer ViewLux™ ultraHTS microplate imager). Replicon cells in the control cultures have high luciferase expression in the absence of any inhibitor. The inhibitory activity of the compound was monitored on the Huh-Luc cells, enabling a dose-response curve for each test compound.
observed-property: EC50 (pM)
Numbers only, in pM.

Form field: reported EC50 of CC[C@H](C)[C@H](NC(=O)OC)C(=O)N1CCC[C@H]1c1nc2cc(-c3ccc4cc(-c5cnc([C@@H]6CCCN6C(=O)[C@@H](NC(=O)OC)[C@@H](C)OC)[nH]5)ccc4c3)ccc2[nH]1
3

Please report EC50 for every entry that follows.
1. COC(=O)N[C@H](C(=O)N1CCC[C@H]1c1nc2ccc(-c3ccc4cc(-c5cnc([C@@H]6CCCN6C(=O)[C@@H](NC(=O)OC)[C@@H](C)OC)[nH]5)ccc4c3)cc2[nH]1)C(C)C
2. CC[C@@H](C)[C@H](NC(=O)OC)C(=O)N1CCC[C@H]1c1ncc(-c2ccc3cc(-c4ccc5nc([C@@H]6CCCN6C(=O)[C@@H](NC(=O)OC)[C@H](C)CC)[nH]c5c4)ccc3c2)[nH]1

6
3
